# reported relative viability; entries follow
System: NCI-H1437
Assay: relative viability (nuclei count vs DMSO), 5 days (fraction); higher = more cells survive
Details: first compound 5 µM
Please give the numeric answer without any surrounding text.

INSERT INTO results (compound, property, experimental_result) VALUES
  ('O=C(O)CCCCC(CCSCc1ccccc1)SCc1ccccc1 (stereo not drawn) [CPI-613] + C[C@]1(O)C[C@@H](c2nc(-c3ccc4ccc(-c5ccccc5)nc4c3)c3c(N)nccn32)C1 [Linsitinib] (partner 1 µM)', 'relative viability', 1.03),
  ('O=C(O)CCCCC(CCSCc1ccccc1)SCc1ccccc1 (stereo not drawn) [CPI-613] + COc1cccc2cc(-c3nc([C@H]4CC[C@H](C(=O)O)CC4)n4ncnc(N)c34)[nH]c12 [OSI-027] (partner 0.5 µM)', 'relative viability', 0.892);

Need relative viability, item O=C(O)CCCCC(CCSCc1ccccc1)SCc1ccccc1 (stereo not drawn) [CPI-613] + Nc1ncn([C@H]2C[C@H](O)[C@@H](CO)O2)c(=O)n1 [Decitabine] (partner 2 µM) 0.491

====

Test system: HOP-62
Assay: relative viability (nuclei count vs DMSO), 5 days (fraction); higher = more cells survive
Conditions: first compound 0.04 µM
PROPERTY: relative viability
Please give the numeric answer without any surrounding text.

The examples below pair each entry with its known result.
INSERT INTO results (compound, property, experimental_result) VALUES
  ('Cc1sc2c(c1C)C(c1ccc(Cl)cc1)=N[C@@H](CC(=O)OC(C)(C)C)c1nnc(C)n1-2 [JQ1] + Nc1nc2[nH]cc(CCc3ccc(C(=O)N[C@@H](CCC(=O)O)C(=O)O)cc3)c2c(=O)[nH]1 [Pemetrexed] (partner 0.2 µM)', 'relative viability', 0.271),
  ('Cc1sc2c(c1C)C(c1ccc(Cl)cc1)=N[C@@H](CC(=O)OC(C)(C)C)c1nnc(C)n1-2 [JQ1] + C[C@@H](Oc1cc(-c2cnn(C3CCNCC3)c2)cnc1N)c1c(Cl)ccc(F)c1Cl [Crizotinib] (partner 1 µM)', 'relative viability', 0.714);

Need relative viability, item Cc1sc2c(c1C)C(c1ccc(Cl)cc1)=N[C@@H](CC(=O)OC(C)(C)C)c1nnc(C)n1-2 [JQ1] + CC1(C)CCC(c2ccc(Cl)cc2)=C(CN2CCN(c3ccc(C(=O)NS(=O)(=O)c4ccc(N[C@H](CCN5CCOCC5)CSc5ccccc5)c(S(=O)(=O)C(F)(F)F)c4)cc3)CC2)C1 [Navitoclax] (partner 0.5 µM) 0.926

Need relative viability, item Cc1sc2c(c1C)C(c1ccc(Cl)cc1)=N[C@@H](CC(=O)OC(C)(C)C)c1nnc(C)n1-2 [JQ1] + Nc1ncn([C@H]2C[C@H](O)[C@@H](CO)O2)c(=O)n1 [Decitabine] (partner 2 µM) 0.238

Need relative viability, item Cc1sc2c(c1C)C(c1ccc(Cl)cc1)=N[C@@H](CC(=O)OC(C)(C)C)c1nnc(C)n1-2 [JQ1] + Cc1cc(Nc2cc(N3CCN(C)CC3)nc(Sc3ccc(NC(=O)C4CC4)cc3)n2)n[nH]1 [Tozasertib] (partner 0.1 µM) 0.361

Need relative viability, item Cc1sc2c(c1C)C(c1ccc(Cl)cc1)=N[C@@H](CC(=O)OC(C)(C)C)c1nnc(C)n1-2 [JQ1] + CC(C)C[C@H](NC(=O)[C@H](Cc1ccccc1)NC(=O)c1cnccn1)B(O)O [Bortezomib] (partner 0.002 µM) 0.447

Need relative viability, item Cc1sc2c(c1C)C(c1ccc(Cl)cc1)=N[C@@H](CC(=O)OC(C)(C)C)c1nnc(C)n1-2 [JQ1] + CC(=O)Nc1cccc(-n2c(=O)n(C3CC3)c(=O)c3c(Nc4ccc(I)cc4F)n(C)c(=O)c(C)c32)c1 [Trametinib] (partner 0.02 µM) 0.307

Need relative viability, item Cc1sc2c(c1C)C(c1ccc(Cl)cc1)=N[C@@H](CC(=O)OC(C)(C)C)c1nnc(C)n1-2 [JQ1] + CC(=O)c1c(C)c2cnc(Nc3ccc(N4CCNCC4)cn3)nc2n(C2CCCC2)c1=O [Palbociclib] (partner 0.5 µM) 0.424

// data source = the supplement of paper PMC10307832
